Test: Cytotoxicity against human SEM cells after 72 hrs by Cell-Titer Glo assay
Type: functional, cell-based
QUANTITY_MEASURED: EC50

The value of EC50 measured for the compound COc1ccc(/C=C/[C@@](C)(/C=C/c2ccc(O)c(/C=C/C(=O)c3ccccc3)c2)CCC=C(C)C)cc1 turned out to be 30 µM

The value of EC50 measured for the compound C=C[C@@](C)(/C=C/c1ccc(Nc2ccc(OC(F)(F)F)cc2)cc1)CCC=C(C)C turned out to be > 36.6 µM

The value of EC50 measured for the compound C=C[C@@](C)(/C=C/c1ccc(O)cc1)CCC(O)C(C)(C)O (stereo partly drawn) turned out to be > 36.6 µM

The value of EC50 measured for the compound C=C[C@@](C)(/C=C/c1ccc(O)cc1)CC/C=C/C#N turned out to be > 36.6 µM

The value of EC50 measured for the compound CCOC(=O)/C=C/c1cc(/C=C/[C@](C)(/C=C/c2ccc(OC)cc2)CCC=C(C)C)ccc1O turned out to be > 36.6 µM

The value of EC50 measured for the compound C=C[C@](C)(CCCC(C)C)CCc1ccc(O)cc1 turned out to be > 36.6 µM

The value of EC50 measured for the compound C=C[C@@](C)(/C=C/c1ccc(O)cc1)CCC=O turned out to be > 36.6 µM

The value of EC50 measured for the compound COc1ccc(/C=C/[C@@](C)(/C=C/c2ccc(O)c(/C=C/C(=O)OCc3ccccc3)c2)CCC=C(C)C)cc1 turned out to be > 36.6 µM

The value of EC50 measured for the compound C=C[C@@](C)(/C=C/c1ccc(O)cc1)CC/C=C/C(=O)c1ccccc1 turned out to be > 36.6 µM

The value of EC50 measured for the compound CC(C)=CCC[C@](C)(/C=C/c1ccc(O)cc1)/C=C/c1cccc(F)c1 turned out to be > 36.6 µM

The value of EC50 measured for the compound C=C[C@@](C)(/C=C/c1ccc(-c2c(F)c(F)c(F)c(F)c2F)cc1)CCC=C(C)C turned out to be > 36.6 µM

The value of EC50 measured for the compound COc1ccc(/C=C/[C@@](C)(/C=C/c2ccc(O)c(/C=C/C#N)c2)CCC=C(C)C)cc1 turned out to be 4.54 µM

The value of EC50 measured for the compound C=C[C@@](C)(/C=C/c1ccc(O)c(/C=C/c2ccc(F)cc2)c1)CCC=C(C)C turned out to be > 36.6 µM

The value of EC50 measured for the compound C=C[C@@](C)(/C=C/c1ccc(OS(=O)(=O)C(F)(F)F)cc1)CCC=C(C)C turned out to be > 36.6 µM

The value of EC50 measured for the compound C=C[C@@](C)(/C=C/c1ccc(-c2cccc(F)c2)cc1)CCC=C(C)C turned out to be > 36.6 µM

The value of EC50 measured for the compound C=C[C@@](C)(/C=C/c1ccc(O)c(/C=C/c2ccc(Cl)c(Cl)c2)c1)CCC=C(C)C turned out to be > 7.51 µM

The value of EC50 measured for the compound C=C[C@@](C)(/C=C/c1ccc(O)cc1)CCC1OC1(C)C (stereo partly drawn) turned out to be > 36.6 µM

The value of EC50 measured for the compound C=C[C@@](C)(/C=C/c1ccc(Nc2ccc3c(c2)OCO3)cc1)CCC=C(C)C turned out to be > 36.6 µM

The value of EC50 measured for the compound C=C[C@@](C)(/C=C/c1ccc(O)cc1)CC/C=C(\C)C(=O)OCC turned out to be > 36.6 µM

The value of EC50 measured for the compound C=C[C@@](C)(/C=C/c1ccc(-c2cccc(Br)c2)cc1)CCC=C(C)C turned out to be > 36.6 µM

The value of EC50 measured for the compound C=C[C@@](C)(/C=C/c1ccc(O)c(/C=C(\C)C(=O)OCC)c1)CCC=C(C)C turned out to be > 36.6 µM

The value of EC50 measured for the compound C=C[C@@](C)(/C=C/c1ccc(Nc2cc(C(F)(F)F)cc(C(F)(F)F)c2)cc1)CCC=C(C)C turned out to be > 36.6 µM

The value of EC50 measured for the compound C=C[C@@](C)(/C=C/c1ccc(-c2ccc(Cl)c(Cl)c2)cc1)CCC=C(C)C turned out to be > 36.6 µM

The value of EC50 measured for the compound COc1ccc(/C=C/[C@@](C)(/C=C/c2ccc(O)cc2)CCC=C(C)C)cc1 turned out to be > 36.6 µM

The value of EC50 measured for the compound C=C[C@@](C)(/C=C/c1ccc(O)c(/C=C/C(=O)OCC)c1)CCC=C(C)C turned out to be > 36.6 µM

The value of EC50 measured for the compound C=C[C@@](C)(/C=C/c1ccc(O)c(CO)c1)CCC=C(C)C turned out to be > 36.6 µM

The value of EC50 measured for the compound C=C[C@@](C)(/C=C/c1ccc(-c2ccc(F)cc2)cc1)CCC=C(C)C turned out to be > 36.6 µM

The value of EC50 measured for the compound C=C[C@@](C)(/C=C/c1ccc(O)c(/C=C/C(=O)c2ccccc2)c1)CCC=C(C)C turned out to be 8 µM

The value of EC50 measured for the compound C=C[C@@](C)(/C=C/c1ccc(Nc2ccc(Cl)cc2)cc1)CCC=C(C)C turned out to be > 36.6 µM

The value of EC50 measured for the compound COc1ccc(/C=C/[C@@](C)(/C=C/c2ccc(O)c(/C=C/C(C)=O)c2)CCC=C(C)C)cc1 turned out to be 8.67 µM

The value of EC50 measured for the compound C=C[C@@](C)(/C=C/c1ccc(Nc2ccc(OC)c(OC)c2)cc1)CCC=C(C)C turned out to be > 36.6 µM

The value of EC50 measured for the compound C=C[C@@](C)(/C=C/c1ccc(O)cc1)CCC=C(C)C [BAKUCHIOL] turned out to be 15.3 µM

The value of EC50 measured for the compound C=C[C@@](C)(/C=C/c1ccc(Nc2cccc(OC(F)(F)F)c2)cc1)CCC=C(C)C turned out to be > 36.6 µM

The value of EC50 measured for the compound CCOC(=O)/C(C)=C/c1cc(/C=C/[C@](C)(/C=C/c2ccc(OC)cc2)CCC=C(C)C)ccc1O turned out to be > 36.6 µM

The value of EC50 measured for the compound C=C[C@@](C)(/C=C/c1ccc(O)cc1)CC/C=C/C(=O)OCc1ccccc1 turned out to be > 36.6 µM

The value of EC50 measured for the compound C=C[C@@](C)(/C=C/c1ccc(-c2ccc(Cl)cc2)cc1)CCC=C(C)C turned out to be > 36.6 µM

The value of EC50 measured for the compound C=C[C@@](C)(/C=C/c1ccc(O)cc1)CC/C=C(C)/C=C/C(=O)OCc1ccccc1 turned out to be > 36.6 µM

The value of EC50 measured for the compound COc1ccc(/C=C/[C@@](C)(/C=C/c2ccc(O)c(/C=C/C(=O)OC(C)(C)C)c2)CCC=C(C)C)cc1 turned out to be > 36.6 µM

---

Assay: Cytotoxicity against human SEM cells after 72 hrs by Cell-Titer Glo assay
Type: functional, cell-based
QUANTITY_MEASURED: EC50

The value of EC50 measured for the compound C=C[C@@](C)(/C=C/c1ccc(O)c(C=O)c1)CCC=C(C)C turned out to be 8.51 µM

The value of EC50 measured for the compound C=C[C@@](C)(/C=C/c1ccc(Nc2ccc(OC)cc2)cc1)CCC=C(C)C turned out to be > 36.6 µM

The value of EC50 measured for the compound C=C[C@@](C)(/C=C/c1ccc(Nc2ccc(F)c(F)c2)cc1)CCC=C(C)C turned out to be > 36.6 µM

The value of EC50 measured for the compound C=C[C@@](C)(/C=C/c1ccc(Nc2ccccc2)cc1)CCC=C(C)C turned out to be > 36.6 µM

The value of EC50 measured for the compound C=C[C@@](C)(/C=C/c1ccc(O)c(/C=C/C(N)=O)c1)CCC=C(C)C turned out to be > 36.6 µM
